# target_under_test: HIV-1 integrase (HIV-1)
# assay_text: IN 3′ processing inhibition, fluorescence anisotropy
# reported Ki; entries follow
Report the figure in µM without appending any unit label.

Study these solved cases before continuing.
- binder: "CGTKWLTEVWPLC (modifications not checked) [P16C1]"
  Ki [µM]: 4.3
- binder: "CGTKWLTEWIPLTAEAEC (modifications not checked) [PAW-C1]"
  Ki [µM]: 21
- binder: "GCKWLTEWIPLTAEAEC (modifications not checked) [PAW-C2]"
  Ki [µM]: 8
- binder: "GTKWLTEWIPLTAEAE (modifications not checked) [PAW]"
  Ki [µM]: 12

Task item: For the binder GTKWLTEVWPL (modifications not checked) [P16] , give its reported Ki.
Reply: 10

Values compiled from patent US20110294728A1.
